Values compiled from BigSolDB 2.1.

Conditions: in methyl acetate, 303.15 K
READOUT LABEL: solubility (mole fraction)
The answer should be a number; do not append a unit.

Request: Requested field: solubility (mole fraction). Item: NC(=O)OCCCc1ccccc1
Result: 0.101

====

Conditions: in isopropanol, 323.15 K
READOUT LABEL: solubility (mole fraction)
Just the number, please.

Request: // query solubility (mole fraction) value for entry NC(=O)OCCCc1ccccc1
Result: 0.0904

====

Conditions: in methanol, 318.15 K
READOUT LABEL: solubility (mole fraction)
# print the numeric value only

Request: Which value of solubility (mole fraction) has been reported for NC(=O)OCCCc1ccccc1 in the records?
Result: 0.1

====

Conditions: in isopropanol, 308.15 K
READOUT LABEL: solubility (mole fraction)
Just the number, please, no unit attached.

Request: Fill in the blank: the reported solubility (mole fraction) of NC(=O)OCCCc1ccccc1 is ____.
Result: 0.0439

====

Settings: in methanol, 283.15 K
READOUT LABEL: solubility (mole fraction)
Lab note: record the figure alone, no unit after it.

Request: What value of solubility (mole fraction) has been reported for the following molecule? NC(=O)OCCCc1ccccc1
Result: 0.0202

====

Conditions: in n-propanol, 283.15 K
READOUT LABEL: solubility (mole fraction)
The answer should be written as a number, with no unit following it.

Request: Can you share its solubility (mole fraction)? I mean this molecule: NC(=O)OCCCc1ccccc1
Result: 0.0127

====

Conditions: in 2-butanone, 308.15 K
READOUT LABEL: solubility (mole fraction)
Simply state the number, no unit and no words.

Request: What does the record list as solubility (mole fraction) for NC(=O)OCCCc1ccccc1 ?
Result: 0.131

====

Conditions: in n-butanol, 313.15 K
READOUT LABEL: solubility (mole fraction)
Please reply with the value in numeric form only.

Request: What value of solubility (mole fraction) has been recorded for this entry: NC(=O)OCCCc1ccccc1
Result: 0.0663

====

Conditions: in sec-butanol, 313.15 K
READOUT LABEL: solubility (mole fraction)
Just the number, please.

Request: Endpoint output: solubility (mole fraction) of NC(=O)OCCCc1ccccc1 . Value?
Result: 0.0679

====

Settings: in sec-butanol, 298.15 K
READOUT LABEL: solubility (mole fraction)

Request: Returns the measured solubility (mole fraction) for the input molecule. Input: NC(=O)OCCCc1ccccc1
Result: 0.0299

====

Conditions: in 2-butanone, 323.15 K
READOUT LABEL: solubility (mole fraction)
Just the number.

Request: Quick one: solubility (mole fraction) of NC(=O)OCCCc1ccccc1 ?
Result: 0.187

====

Conditions: in ethyl acetate, 283.15 K
READOUT LABEL: solubility (mole fraction)
# output: bare number, no unit

Request: Name the reported solubility (mole fraction) value associated with the compound NC(=O)OCCCc1ccccc1
Result: 0.0493

====

Details: in ethanol, 288.15 K
READOUT LABEL: solubility (mole fraction)
Please respond with just the number, no unit label.

Request: // returns reported solubility (mole fraction) for input NC(=O)OCCCc1ccccc1
Result: 0.0178

====

Conditions: in acetone, 303.15 K
READOUT LABEL: solubility (mole fraction)

Request: Look at this compound and give its reported solubility (mole fraction). NC(=O)OCCCc1ccccc1
Result: 0.12

====

Settings: in 2-butanone, 293.15 K
READOUT LABEL: solubility (mole fraction)

Request: For the compound NC(=O)OCCCc1ccccc1 , what solubility (mole fraction) is on record?
Result: 0.0829

====

Conditions: in methyl acetate, 313.15 K
READOUT LABEL: solubility (mole fraction)
Simply state the number, no unit and no words.

Request: Can you share its solubility (mole fraction)? I mean this compound: NC(=O)OCCCc1ccccc1
Result: 0.139

====

Details: in ethanol, 298.15 K
READOUT LABEL: solubility (mole fraction)
I only need the number, thanks.

Request: solubility (mole fraction) lookup needed for NC(=O)OCCCc1ccccc1 , thanks.
Result: 0.0307

====

Conditions: in n-butanol, 298.15 K
READOUT LABEL: solubility (mole fraction)

Request: State the recorded solubility (mole fraction) for this entry: NC(=O)OCCCc1ccccc1
Result: 0.0279

====

Details: in ethanol, 318.15 K
READOUT LABEL: solubility (mole fraction)
Note: the reply should be a number with no unit written.

Request: Which solubility (mole fraction) reading was recorded for the molecule NC(=O)OCCCc1ccccc1 ?
Result: 0.0808

====

Conditions: in acetone, 298.15 K
READOUT LABEL: solubility (mole fraction)
Form: value (number only, do not type unit).

Request: Which measured solubility (mole fraction) value corresponds to NC(=O)OCCCc1ccccc1 ?
Result: 0.107

====

Settings: in 2-butanone, 298.15 K
READOUT LABEL: solubility (mole fraction)

Request: Consider the molecule NC(=O)OCCCc1ccccc1 and give its measured solubility (mole fraction).
Result: 0.0993

====

Conditions: in methyl acetate, 298.15 K
READOUT LABEL: solubility (mole fraction)
Write the number on its own, no unit after it.

Request: What value of measured solubility (mole fraction) is listed for NC(=O)OCCCc1ccccc1 ?
Result: 0.0862

====

Conditions: in isopropanol, 313.15 K
READOUT LABEL: solubility (mole fraction)

Request: Suppose we examine the compound NC(=O)OCCCc1ccccc1 ; what solubility (mole fraction) value has been reported?
Result: 0.0587

====

Details: in methanol, 323.15 K
READOUT LABEL: solubility (mole fraction)
Answer with the value's number alone.

Request: Look up solubility (mole fraction) for this compound: NC(=O)OCCCc1ccccc1
Result: 0.118

====

Conditions: in ethyl acetate, 288.15 K
READOUT LABEL: solubility (mole fraction)
// keep it numeric: no unit symbol after the value

Request: Given NC(=O)OCCCc1ccccc1 , state its recorded solubility (mole fraction).
Result: 0.0567

====

Settings: in isopropanol, 303.15 K
READOUT LABEL: solubility (mole fraction)
Answer using only a numeral; do not append any unit.

Request: Give its solubility (mole fraction) value. Item: NC(=O)OCCCc1ccccc1
Result: 0.0339

====

Conditions: in methyl acetate, 308.15 K
READOUT LABEL: solubility (mole fraction)
Would you mind answering with just the numeric figure?

Request: State the recorded solubility (mole fraction) for this entry: NC(=O)OCCCc1ccccc1
Result: 0.119

====

Details: in ethyl acetate, 318.15 K
READOUT LABEL: solubility (mole fraction)
Lab note: record the figure alone, no unit after it.

Request: Find the recorded solubility (mole fraction) belonging to NC(=O)OCCCc1ccccc1 and report it.
Result: 0.13

====

Conditions: in methanol, 293.15 K
READOUT LABEL: solubility (mole fraction)
Write no unit; give the number alone.

Request: Value lookup for solubility (mole fraction); key = NC(=O)OCCCc1ccccc1
Result: 0.0321

====

Settings: in ethyl acetate, 308.15 K
READOUT LABEL: solubility (mole fraction)
I'd appreciate a reply containing only the number, no unit.

Request: Can you look up the measured solubility (mole fraction) of NC(=O)OCCCc1ccccc1 for me?
Result: 0.104

====

Conditions: in methanol, 298.15 K
READOUT LABEL: solubility (mole fraction)
Reply with just the number.

Request: Consider the molecule NC(=O)OCCCc1ccccc1 and give its measured solubility (mole fraction).
Result: 0.0396

====

Details: in acetone, 318.15 K
READOUT LABEL: solubility (mole fraction)

Request: Return reported solubility (mole fraction); argument: NC(=O)OCCCc1ccccc1
Result: 0.179

====

Details: in methyl acetate, 288.15 K
READOUT LABEL: solubility (mole fraction)
Number only, no unit.

Request: Query (compound): NC(=O)OCCCc1ccccc1 ; field requested: solubility (mole fraction)
Result: 0.059

====

Conditions: in n-propanol, 298.15 K
READOUT LABEL: solubility (mole fraction)
Give the figure by itself; no unit, no explanation.

Request: What measured solubility (mole fraction) goes with NC(=O)OCCCc1ccccc1 ?
Result: 0.028

====

Details: in n-pentanol, 288.15 K
READOUT LABEL: solubility (mole fraction)
Answer field: number only, no words.

Request: Recorded solubility (mole fraction) for NC(=O)OCCCc1ccccc1 , please?
Result: 0.02

====

Details: in ethanol, 313.15 K
READOUT LABEL: solubility (mole fraction)
Answer with a number only.

Request: So what does the record say about solubility (mole fraction) for NC(=O)OCCCc1ccccc1 ?
Result: 0.0623

====

Details: in sec-butanol, 323.15 K
READOUT LABEL: solubility (mole fraction)
I'd appreciate a reply containing only the number, no unit.

Request: State the recorded solubility (mole fraction) for this entry: NC(=O)OCCCc1ccccc1
Result: 0.118

====

Settings: in isopropanol, 283.15 K
READOUT LABEL: solubility (mole fraction)

Request: For the compound shown here, NC(=O)OCCCc1ccccc1 , give the reported solubility (mole fraction).
Result: 0.0108

====

Conditions: in n-pentanol, 283.15 K
READOUT LABEL: solubility (mole fraction)
Lab note: record just the number, no unit beside it.

Request: # get_value(readout='solubility (mole fraction)', item= NC(=O)OCCCc1ccccc1 )
Result: 0.0174
